- ASSAY_REMARKS: Normal rat biodistribution
- Type: in vivo
- APPLIED_CONDITIONS: 15 min post-injection, i.v., male Wistar rats, Mean±SD n=3
What % ID Blood was measured for each of the following?
Answers are plain numbers, in % ID.

Challenge: Reported % ID Blood for CC(=NO)C(C)(C)NCCN(CCNC(=O)C1CCC(CNC(=O)c2ccc(S(=O)(=O)NCCCCCN)cc2)CC1)CCNC(C)(C)C(C)=NO (centres unmarked) : what is it?
Response given: 9.46

Challenge: Reported % ID Blood for CC(CNCc1ccccc1O)(CNCc1ccccc1O)CNC(=O)c1ccc(S(=O)(=O)NCCCCCN)cc1 : what is it?
Response given: 3.9

Challenge: Reported % ID Blood for CC(=NO)C(C)(C)NCC(C)(CNC(=O)c1ccc(S(=O)(=O)NCCCCCN)cc1)CNC(C)(C)C(C)=NO (centres unmarked) : what is it?
Response given: 1.45

Challenge: Reported % ID Blood for CC(=NO)C(C)(C)NCC(C)(CNC(=O)C1CCC(CNC(=O)c2ccc(S(=O)(=O)NCCCCCN)cc2)CC1)CNC(C)(C)C(C)=NO (centres unmarked) : what is it?
Response given: 1.22

Turning now to a further molecule:
Challenge: Reported % ID Blood for NCCCCCNS(=O)(=O)c1ccc(C(=O)NCCCNC(=O)c2ccc(NN)nc2)cc1 : what is it?
Response given: 7.11

----------
- ASSAY_REMARKS: Normal rat biodistribution
- Type: in vivo
- APPLIED_CONDITIONS: 2 min post-injection, i.v., male Wistar rats, Mean±SD n=3
What % ID Urine was measured for each of the following?
Answers are plain numbers, in % ID.

Challenge: Reported % ID Urine for CC(=NO)C(C)(C)NCC(C)(CNC(=O)c1ccc(S(=O)(=O)NCCCCCN)cc1)CNC(C)(C)C(C)=NO (stereo not drawn) [Compound 3] : what is it?
Response given: 0.06

Below is a list of compounds. For each, state its recorded % ID Urine.
1. CC(=NO)C(C)(C)NCCN(CCNC(=O)c1ccc(S(=O)(=O)NCCCCCN)cc1)CCNC(C)(C)C(C)=NO [Compound 16]
2. CC(=NO)C(C)(C)NCCN(CCNC(=O)C1CCC(CNC(=O)c2ccc(S(=O)(=O)NCCCCCN)cc2)CC1)CCNC(C)(C)C(C)=NO (stereo not drawn) [Compound 17]

Response given:
[1.74, 1.38]

----------
- ASSAY_REMARKS: Normal rat biodistribution
- Format: in vivo
- APPLIED_CONDITIONS: 240 min post-injection, i.v., male Wistar rats, Mean±SD n=3
REPORTED_PROPERTY: % ID Liver

Field: example entries. Status: answers known.
Challenge: Reported % ID Liver for CC(=NO)C(C)(C)NCC(C)(CNC(=O)CCCCCN)CNC(C)(C)C(C)=NO (stereo not shown) : what is it?
Response given: 3.81 ± 0.92 % ID

Challenge: Reported % ID Liver for CC(CNCc1ccccc1O)(CNCc1ccccc1O)CNC(=O)c1ccc(S(=O)(=O)NCCCCCN)cc1 : what is it?
Response given: 3.97 ± 0.53 % ID

Below is a list of compounds. For each, state its recorded % ID Liver.
1. NCCCCCNS(=O)(=O)c1ccc(C(=O)NCCCNC(=O)c2ccc(NN)nc2)cc1
2. CC(=NO)C(C)(C)NCC(C)(CNC(=O)c1ccc(S(=O)(=O)NCCCCCN)cc1)CNC(C)(C)C(C)=NO (stereo not shown)

Response given:
["0.3 ± 0.03 % ID", "1.35 ± 0.06 % ID"]

----------
What % ID Lung was measured for each of the following?
- ASSAY_REMARKS: Normal rat biodistribution
- Assay type: in vivo
- APPLIED_CONDITIONS: 30 min post-injection, i.v., male Wistar rats, Mean±SD n=3
Answers are plain numbers, in % ID.

Field: example entries. Status: answers known.
Challenge: Reported % ID Lung for CC(CNCc1ccccc1O)(CNCc1ccccc1O)CNC(=O)c1ccc(S(=O)(=O)NCCCCCN)cc1 : what is it?
Response given: 1.17

Challenge: Reported % ID Lung for CC(=NO)C(C)(C)NCC(C)(CNC(=O)C1CCC(CNC(=O)c2ccc(S(=O)(=O)NCCCCCN)cc2)CC1)CNC(C)(C)C(C)=NO (stereo not shown) : what is it?
Response given: 0.1

Challenge: Reported % ID Lung for CC(=NO)C(C)(C)NCCN(CCNC(=O)c1ccc(S(=O)(=O)NCCCCCN)cc1)CCNC(C)(C)C(C)=NO : what is it?
Response given: 0.31

Challenge: Reported % ID Lung for CC(=NO)C(C)(C)NCC(C)(CNC(=O)CCCCCN)CNC(C)(C)C(C)=NO (stereo not shown) : what is it?
Response given: 0.16

Challenge: Reported % ID Lung for CC(=NO)C(C)(C)NCCN(CCNC(=O)C1CCC(CNC(=O)c2ccc(S(=O)(=O)NCCCCCN)cc2)CC1)CCNC(C)(C)C(C)=NO (stereo not shown) : what is it?
Response given: 0.54

Next:
Challenge: Reported % ID Lung for NCCCCCNS(=O)(=O)c1ccc(C(=O)NCCCNC(=O)c2ccc(NN)nc2)cc1 : what is it?
Response given: 0.39

----------
What % ID GI Tract was measured for each of the following?
- ASSAY_REMARKS: Normal rat biodistribution
- Type: in vivo
- APPLIED_CONDITIONS: 60 min post-injection, i.v., male Wistar rats, Mean±SD n=3

Field: example entries. Status: answers known.
Challenge: Reported % ID GI Tract for CC(=NO)C(C)(C)NCC(C)(CNC(=O)C1CCC(CNC(=O)c2ccc(S(=O)(=O)NCCCCCN)cc2)CC1)CNC(C)(C)C(C)=NO (stereo not drawn) : what is it?
Response given: 85.4 ± 0.12 % ID

Challenge: Reported % ID GI Tract for CC(CNCc1ccccc1O)(CNCc1ccccc1O)CNC(=O)c1ccc(S(=O)(=O)NCCCCCN)cc1 : what is it?
Response given: 55.87 ± 2.5 % ID

Next:
Challenge: Reported % ID GI Tract for CC(=NO)C(C)(C)NCCN(CCNC(=O)c1ccc(S(=O)(=O)NCCCCCN)cc1)CCNC(C)(C)C(C)=NO : what is it?
Response given: 31.6 ± 6.4 % ID

----------
- ASSAY_REMARKS: Normal rat biodistribution
- Type: in vivo
- APPLIED_CONDITIONS: 240 min post-injection, i.v., male Wistar rats, Mean±SD n=3
Just a reminder that ties go to Condition not met: only % ID Muscle strictly below 1 % ID counts as Condition met.

Sample answers from the record:
Challenge: % ID Muscle strictly < 1 % ID for this compound? NCCCCCNS(=O)(=O)c1ccc(C(=O)NCCCNC(=O)c2ccc(NN)nc2)cc1
Response given: Condition not met

Challenge: % ID Muscle strictly < 1 % ID for this compound? CC(=NO)C(C)(C)NCCN(CCNC(=O)c1ccc(S(=O)(=O)NCCCCCN)cc1)CCNC(C)(C)C(C)=NO
Response given: Condition met

Challenge: % ID Muscle strictly < 1 % ID for this compound? CC(=NO)C(C)(C)NCC(C)(CNC(=O)CCCCCN)CNC(C)(C)C(C)=NO (stereo not shown)
Response given: Condition not met

Challenge: % ID Muscle strictly < 1 % ID for this compound? CC(=NO)C(C)(C)NCC(C)(CNC(=O)c1ccc(S(=O)(=O)NCCCCCN)cc1)CNC(C)(C)C(C)=NO (stereo not shown)
Response given: Condition met

Challenge: % ID Muscle strictly < 1 % ID for this compound? CC(=NO)C(C)(C)NCCN(CCNC(=O)C1CCC(CNC(=O)c2ccc(S(=O)(=O)NCCCCCN)cc2)CC1)CCNC(C)(C)C(C)=NO (stereo not shown)
Response given: Condition met

Next:
Challenge: % ID Muscle strictly < 1 % ID for this compound? CC(CNCc1ccccc1O)(CNCc1ccccc1O)CNC(=O)c1ccc(S(=O)(=O)NCCCCCN)cc1
Response given: Condition not met

Challenge: % ID Muscle strictly < 1 % ID for this compound? CC(=NO)C(C)(C)NCC(C)(CNC(=O)C1CCC(CNC(=O)c2ccc(S(=O)(=O)NCCCCCN)cc2)CC1)CNC(C)(C)C(C)=NO (stereo not shown)
Response given: Condition met

----------
- ASSAY_REMARKS: Normal rat biodistribution
- Type: in vivo
- APPLIED_CONDITIONS: 240 min post-injection, i.v., male Wistar rats, Mean±SD n=3
What % ID Lung was measured for each of the following?
Numbers only, in % ID.

Challenge: Reported % ID Lung for NCCCCCNS(=O)(=O)c1ccc(C(=O)NCCCNC(=O)c2ccc(NN)nc2)cc1 : what is it?
Response given: 0.05

Turning now to a further molecule:
Challenge: Reported % ID Lung for CC(=NO)C(C)(C)NCC(C)(CNC(=O)C1CCC(CNC(=O)c2ccc(S(=O)(=O)NCCCCCN)cc2)CC1)CNC(C)(C)C(C)=NO (stereo not drawn) : what is it?
Response given: 0.05
